experimentDescription: Antiinflammatory activity in mouse RAW264.7 cells assessed as inhibition of LPS-induced NO production after 24 hrs in presence of LPS by Griess reagent based assay
Assay type: functional, cell-based
runConditions: RAW264.7, 24 h
measurementType: IC50 (µM)
Numbers only, in µM.

Use these answered entries as a reference point.
[[record]]
molecule = "C=C/C(C)=C/C[C@H]1[C@](C)(O)[C@@H](O)C[C@H]2C(C)(C)CCC[C@@]21C"
endpointresult = 49.3

[[record]]
molecule = "CC1=CC(=O)O[C@@]12C[C@@H]1[C@@]3(C)CCCC(C)(C)[C@@H]3C[C@H](O)[C@@]1(C)O2"
endpointresult = 44.6

[[record]]
molecule = "C/C(C=O)=C\\C[C@H]1[C@](C)(O)[C@@H](O)C[C@H]2C(C)(C)CCC[C@@]21C"
endpointresult = 93


Now consider a different molecule.
Give its IC50 value. Item: C/C(=C\CO)[C@H]1C[C@@H]2[C@@]3(C)CCCC(C)(C)[C@@H]3C[C@H](O)[C@@]2(C)O1
42.7
